Recorded values, source the kinase profiling compilation of Christmann-Franck et al. (2016).

The entries below come with measured kinase still bound, per cent of control values attached.
target: MAPK15 (human); assay: KINOMEscan competition binding; conditions: compound 1.0 µM
Please state the figure in %; there is no need to write the unit.

// worked examples, kinase still bound, per cent of control included
CN(C)C/C=C/C(=O)Nc1cccc(C(=O)Nc2ccc(Nc3nccc(/C(C#N)=C4\Nc5ccccc5S4)n3)cc2)c1
76
CN(C)C/C=C/C(=O)Nc1cccc(C(=O)Nc2ccc(Nc3nccc(-c4cccnc4)n3)cc2)c1
7.1
Cc1cc(NC(=O)c2cccc(NC(=O)/C=C/CN(C)C)c2)ccc1Nc1nccc(-c2cccnc2)n1
100

We next turn to a different compound, shown below.
Task: I would be grateful if you could share the reported kinase still bound, per cent of control for `CN(C)C/C=C/C(=O)Nc1cccc(C(=O)Nc2ccc(Nc3nccc(-c4c(-c5ccccc5)nn5ccccc45)n3)cc2)c1` .
Result: 93

* * *

The entries below come with measured kinase still bound, per cent of control values attached.
tested on: PIK3CA (human), P42336 [H1047L]; test: KINOMEscan competition binding; conditions: compound 1.0 µM
Sequence (P42336 whole entry H1047L, looked up): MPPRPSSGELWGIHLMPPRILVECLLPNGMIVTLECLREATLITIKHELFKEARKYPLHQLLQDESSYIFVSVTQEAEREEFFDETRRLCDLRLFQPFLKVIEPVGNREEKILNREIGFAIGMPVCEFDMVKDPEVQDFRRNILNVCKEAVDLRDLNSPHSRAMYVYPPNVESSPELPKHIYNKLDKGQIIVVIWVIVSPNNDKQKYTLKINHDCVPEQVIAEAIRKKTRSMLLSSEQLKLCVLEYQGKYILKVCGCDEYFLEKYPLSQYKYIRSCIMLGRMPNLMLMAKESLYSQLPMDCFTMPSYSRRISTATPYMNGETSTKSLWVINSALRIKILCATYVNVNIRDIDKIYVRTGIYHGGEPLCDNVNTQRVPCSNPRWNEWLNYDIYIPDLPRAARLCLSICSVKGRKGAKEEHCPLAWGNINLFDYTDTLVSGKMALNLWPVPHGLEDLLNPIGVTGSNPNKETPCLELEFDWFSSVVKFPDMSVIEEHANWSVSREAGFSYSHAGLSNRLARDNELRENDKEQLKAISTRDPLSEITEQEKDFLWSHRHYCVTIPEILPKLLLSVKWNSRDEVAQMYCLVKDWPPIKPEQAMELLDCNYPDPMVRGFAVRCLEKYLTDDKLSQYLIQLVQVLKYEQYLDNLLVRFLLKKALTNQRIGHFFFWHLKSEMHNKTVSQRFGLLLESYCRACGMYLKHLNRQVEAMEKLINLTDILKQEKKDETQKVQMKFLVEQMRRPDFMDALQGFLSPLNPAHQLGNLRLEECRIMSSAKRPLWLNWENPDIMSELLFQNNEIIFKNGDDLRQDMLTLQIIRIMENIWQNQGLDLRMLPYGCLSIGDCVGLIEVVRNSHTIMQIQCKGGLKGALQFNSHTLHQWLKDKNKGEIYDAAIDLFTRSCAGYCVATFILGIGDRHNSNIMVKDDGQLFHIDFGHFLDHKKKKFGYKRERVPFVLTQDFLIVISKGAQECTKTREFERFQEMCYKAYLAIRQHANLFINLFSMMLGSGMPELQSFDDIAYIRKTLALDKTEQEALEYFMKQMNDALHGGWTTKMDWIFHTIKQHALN
Please state the figure in %; there is no need to write the unit.

CN(C)C/C=C/C(=O)Nc1cccc(C(=O)Nc2ccc(Nc3nccc(-c4c(-c5ccccc5)nn5ccccc45)n3)cc2)c1
77
CN(C)C/C=C/C(=O)Nc1cccc(C(=O)Nc2ccc(Nc3nccc(-c4cccnc4)n3)cc2)c1
100
CN(C)C/C=C/C(=O)Nc1cccc(C(=O)Nc2ccc(Nc3nccc(/C(C#N)=C4\Nc5ccccc5S4)n3)cc2)c1
100

We next turn to a different molecule, shown below.
Task: I would be grateful if you could share the reported kinase still bound, per cent of control for `Cc1cc(NC(=O)c2cccc(NC(=O)/C=C/CN(C)C)c2)ccc1Nc1nccc(-c2cccnc2)n1` .
Result: 100

* * *

molecular target: DAPK2 (human) (UniProt Q9UIK4); experiment: KINOMEscan competition binding; conditions: compound 1.0 µM
Sequence (Q9UIK4 whole entry, looked up): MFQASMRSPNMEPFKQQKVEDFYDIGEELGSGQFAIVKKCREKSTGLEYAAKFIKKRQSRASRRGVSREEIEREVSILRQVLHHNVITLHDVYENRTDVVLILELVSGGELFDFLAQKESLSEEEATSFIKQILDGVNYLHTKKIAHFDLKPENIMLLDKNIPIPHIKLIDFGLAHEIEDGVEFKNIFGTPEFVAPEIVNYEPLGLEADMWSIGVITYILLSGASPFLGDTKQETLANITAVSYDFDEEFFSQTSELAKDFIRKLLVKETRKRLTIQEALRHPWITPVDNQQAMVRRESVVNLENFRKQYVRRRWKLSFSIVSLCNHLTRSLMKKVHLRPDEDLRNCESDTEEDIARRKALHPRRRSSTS
The entries below come with measured kinase still bound, per cent of control values attached.
Please state the figure in %; there is no need to write the unit.

// worked examples, kinase still bound, per cent of control included
Cc1cc(NC(=O)c2cccc(NC(=O)/C=C/CN(C)C)c2)ccc1Nc1nccc(-c2cccnc2)n1
77
CN(C)C/C=C/C(=O)Nc1cccc(C(=O)Nc2ccc(Nc3nccc(/C(C#N)=C4\Nc5ccccc5S4)n3)cc2)c1
100
CN(C)C/C=C/C(=O)Nc1cccc(C(=O)Nc2ccc(Nc3nccc(-c4c(-c5ccccc5)nn5ccccc45)n3)cc2)c1
97

We next turn to a different molecule, shown below.
Task: I would be grateful if you could share the reported kinase still bound, per cent of control for `CN(C)C/C=C/C(=O)Nc1cccc(C(=O)Nc2ccc(Nc3nccc(-c4cccnc4)n3)cc2)c1` .
Result: 75

* * *

biological target: STK4 (human); assay: KINOMEscan competition binding; details: compound 1.0 µM
ENDPOINT_NAME: kinase still bound, per cent of control
Remember to follow the number with its unit.

// worked examples, kinase still bound, per cent of control included
CN(C)C/C=C/C(=O)Nc1cccc(C(=O)Nc2ccc(Nc3nccc(-c4c(-c5ccccc5)nn5ccccc45)n3)cc2)c1
4.2%
Cc1cc(NC(=O)c2cccc(NC(=O)/C=C/CN(C)C)c2)ccc1Nc1nccc(-c2cccnc2)n1
100%
CN(C)C/C=C/C(=O)Nc1cccc(C(=O)Nc2ccc(Nc3nccc(-c4cccnc4)n3)cc2)c1
45%

We next turn to a different compound, shown below.
Task: I would be grateful if you could share the reported kinase still bound, per cent of control for `CN(C)C/C=C/C(=O)Nc1cccc(C(=O)Nc2ccc(Nc3nccc(/C(C#N)=C4\Nc5ccccc5S4)n3)cc2)c1` .
Result: 100%
